# Species on record: Rattus norvegicus
# protocolSummary: Selectivity ratio of IC50 for rat cardiac Cav1.2 L-type channel to IC50 for rat brain Cav2.2 N-type channel
Response field label: string, one of yes (Ratio IC50 strictly below 1) or no.

• C[C@@H]1CN(Cc2ccc(F)cc2)[C@H](Cc2ccccc2)CN1 (relative stereo) = no
• C[C@@H]1CN(C(c2ccccc2)c2ccccc2)[C@H](CCCCO)CN1 (relative stereo) = no
• C[C@@H]1CN(C(c2ccccc2)c2ccccc2)[C@H](CCCCO[Si](C)(C)C(C)(C)C)CN1 (relative stereo) = no
• C[C@@H]1CN(C(c2ccccc2)c2ccccc2)[C@H](Cc2ccccc2)CN1 = yes
• C[C@@H]1CN(C(c2ccccc2)c2ccccc2)[C@H](CCCO[Si](C)(C)C(C)(C)C)CN1 (relative stereo) = yes
• CCCCC[C@@H]1CN[C@H](C)CN1C(c1ccccc1)c1ccccc1 (relative stereo) = yes

Entry source: ChEMBL document CHEMBL2384998
